# assayedSystem: Nuclear receptor subfamily 1 group I member 3 (Homo sapiens)
# procedureDetails: qHTS assay to identify small molecule agonists of the constitutive androstane receptor (CAR) signaling pathway (AID 1224839); also: nearly all actives have a fitted effect of over 15% in size;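 as to activation: HepG2 cells stably carrying human CAR and a CYP2B6 luciferase reporter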
# conditionsUsed: HepG2 hCAR CYP2B6-luciferase, agonist mode, 24 h; series mostly up to 92.4 µM
Results filed as inconclusive are left out. Calls of active or inactive are those of the source. Calls follow the shape of the dose curve; as a rule, active = well fitted activation curve with a large enough effect in the repeat runs; inconclusive = weak or mixed curves; inactive = no such curve, though single readings can be large or run the other way.
// allowed return values: y for active, n for inactive

Examples from the recorded data:
Dear colleague, could you share the recorded outcome for CCCCCCCCOC(=O)c1ccc(C(=O)OCCCCCCCC)c(C(=O)OCCCCCCCC)c1 when you have a moment?
n

Dear colleague, could you share the recorded outcome for N#CCc1ccccc1 when you have a moment?
n

Dear colleague, could you share the recorded outcome for CCCCOC(=O)c1ccccc1C(=O)OCc1ccccc1 when you have a moment?
y

Next:
Dear colleague, could you share the recorded outcome for ClCCCCBr when you have a moment?
n

Dear colleague, could you share the recorded outcome for CCOP(=O)(OCC)O/C(=C/Cl)c1ccc(Cl)cc1Cl when you have a moment?
y

Dear colleague, could you share the recorded outcome for CCC(C)(NC(=O)c1cc(Cl)c(C)c(Cl)c1)C(=O)CCl (stereo unspecified) when you have a moment?
n

----------
# procedureDetails: qHTS assay for identifying genotoxic compounds that show differential cytotoxicity against isogenic chicken DT40 cell lines with known DNA damage response pathways - Rad54/Ku70 mutant cell line (AID 743015); also: nearly all actives have a fitted effect of over 60% in size; also: potency is read from the fitted curve at half-maximal effect
# conditionsUsed: DT40 Rad54/Ku70 mutant viability, CellTiter-Glo, 40 h; series mostly up to 66.8 µM
Results filed as inconclusive are left out. Activity calls are given as the source filed them. Calls follow the shape of the dose curve; as a rule, active = well fitted cell-killing curve with a large enough effect in the repeat runs; inconclusive = weak or mixed curves; inactive = no such curve, though single readings can be large or run the other way.
propertyName: Potency

Below are worked cases with known answers.
If you can, please state the reported Potency value of BrCC(Br)C1CCC(Br)C(Br)C1 (stereo not given) .
inactive

If you can, please state the reported Potency value of Cc1ccccc1CCl .
inactive

If you can, please state the reported Potency value of CCOc1nc(F)cc2nc(S(=O)(=O)Nc3c(Cl)cccc3Cl)nn12 .
inactive

If you can, please state the reported Potency value of CC(C)(C)c1cc([N+](=O)[O-])cc([N+](=O)[O-])c1O .
19.3 µM (active)

If you can, please state the reported Potency value of [O-][Cl+]O .
inactive

Next:
If you can, please state the reported Potency value of ClCCCCBr .
inactive

If you can, please state the reported Potency value of Cc1ccc(-c2c(Cl)nc(C#N)n2S(=O)(=O)N(C)C)cc1 .
61.1 µM (active)

If you can, please state the reported Potency value of COc1cc(CC(C)N)cc2c1OCO2 (stereo not given) .
inactive

If you can, please state the reported Potency value of C=CC(=O)OC .
inactive

If you can, please state the reported Potency value of C=CCC1([C@H](C)CCC)C(=O)NC(=O)NC1=O .
inactive

----------
# procedureDetails: A CellTox Green Cytotoxicity Assay to monitor cytotoxicity in HEK293 cells - 8 hour (AID 1224884); also: nearly all actives have a fitted effect of over 35% in size
# conditionsUsed: CellTox Green fluorescence; series mostly up to 76.8 µM
Records with an inconclusive call do not appear. Activity calls are given as the source filed them. Calls come from the whole dose curve; as a rule, active = well fitted activation curve with a large enough effect in the repeat runs; inconclusive = weak or mixed curves; inactive = flat fitted curve, though single readings scatter.
propertyName: outcome

If you can, please state the reported outcome value of ClCc1cccc(Cl)c1 .
inactive

If you can, please state the reported outcome value of COC(=O)C(C)N(C(=O)Cc1ccccc1)c1c(C)cccc1C (centres undefined) .
inactive

If you can, please state the reported outcome value of CC(C)=CCOc1c2occc2cc2ccc(=O)oc12 .
inactive

If you can, please state the reported outcome value of CC[C@H]1C[C@H]2[C@@H]3CCC4=CC(=O)CC[C@@H]4[C@H]3CC[C@]2(C)[C@H]1O .
inactive
